tested.target: HCV proteinase (Hepatitis C virus genotype 1a, UniProt P27958)
Sequence (P27958 1027-1208): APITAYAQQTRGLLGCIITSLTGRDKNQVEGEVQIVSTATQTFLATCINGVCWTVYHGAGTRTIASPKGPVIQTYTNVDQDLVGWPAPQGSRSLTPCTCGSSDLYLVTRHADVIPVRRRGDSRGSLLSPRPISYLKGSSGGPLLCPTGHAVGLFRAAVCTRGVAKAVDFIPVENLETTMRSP
protocol.notes: HCV proteinase inhibition assay (described in WO 98/22496)
Format: biochemical
pIC50: −log10 of the molar value. *1 amine or outer side, *2 acyl side, *3 side chain or, on linkers, in order; H or OH if unused. Where a SMILES comes first, the peptide text is derived from it. [ ]: non-standard residue; d: D form. The star is where a group is joined. Phe(2-Me) = Cc1ccccc1C[C@H](N)C(=O)O; NleCONH2 = CCCC[C@H](N*)C(=O)C(N)=O; Suc = O=C(CCC(=O)[*:2])[*:1]; Tle = CC(C)(C)[C@H](N)C(=O)O
We begin with a simple list: items and their reported pIC50.

# compound, tested.target, pIC50
rows = [
    ("Cc1ccccc1C[C@H](NC(=O)[C@H](CCC(=O)O)NC(=O)[C@H](CC(=O)O)NC(=O)CCC(=O)O)C(=O)N[C@H](C(=O)N[C@@H](CC(C)C)C(=O)NC(CC(F)(F)F)C(=O)C(=O)NCc1ccc(O)cc1)C(C)(C)C (mixture of isomers)", "HCV proteinase (Hepatitis C virus genotype 1a, UniProt P27958)", 8.40),
    ("CCCC[C@H](NC(=O)[C@H](CC(C)C)NC(=O)[C@@H](NC(=O)[C@H](Cc1ccccc1C)NC(=O)[C@H](CCC(=O)O)NC(=O)[C@H](CC(=O)O)NC(=O)CCC(=O)O)C(C)(C)C)C(=O)C(N)=O [J] (Suc-DE[Phe(2-Me)][Tle]L-NleCONH2)", "HCV proteinase (Hepatitis C virus genotype 1a, UniProt P27958)", 7.94),
    ("Cc1ccccc1C[C@H](NC(=O)[C@H](CCC(=O)O)NC(=O)[C@H](CC(=O)O)NC(=O)CCC(=O)O)C(=O)N[C@H](C(=O)N[C@@H](CC(C)C)C(=O)NC(CC(F)(F)F)C(=O)C(=O)NCc1ccccc1)C(C)(C)C (mixture of isomers)", "HCV proteinase (Hepatitis C virus genotype 1a, UniProt P27958)", 8.40),
    ("Cc1ccccc1C[C@H](NC(=O)[C@H](CCC(=O)O)NC(=O)[C@H](CC(=O)O)NC(=O)CCC(=O)O)C(=O)N[C@H](C(=O)N[C@@H](CC(C)C)C(=O)NC(CC(F)(F)F)C(=O)C(=O)N[C@@H](C)c1ccccc1)C(C)(C)C (mixture of isomers)", "HCV proteinase (Hepatitis C virus genotype 1a, UniProt P27958)", 8.40),
    ("Cc1ccccc1C[C@H](NC(=O)[C@H](CCC(=O)O)NC(=O)[C@H](CC(=O)O)NC(=O)CCC(=O)O)C(=O)N[C@H](C(=O)N[C@@H](CC(C)C)C(=O)NC(CC(F)(F)F)C(=O)C(=O)N[C@H](c1ccccc1)C(C)C)C(C)(C)C (mixture of isomers)", "HCV proteinase (Hepatitis C virus genotype 1a, UniProt P27958)", 8.15),
    ("Cc1ccccc1C[C@H](NC(=O)[C@H](CCC(=O)O)NC(=O)[C@H](CC(=O)O)NC(=O)CCC(=O)O)C(=O)N[C@H](C(=O)N[C@@H](CC(C)C)C(=O)NC(CC(F)(F)F)C(=O)C(N)=O)C(C)(C)C (single isomer, unassigned)", "HCV proteinase (Hepatitis C virus genotype 1a, UniProt P27958)", 8.15),
    ("COc1cccc(CNC(=O)C(=O)C(CC(F)(F)F)NC(=O)[C@H](CC(C)C)NC(=O)[C@@H](NC(=O)[C@H](Cc2ccccc2C)NC(=O)[C@H](CCC(=O)O)NC(=O)[C@H](CC(=O)O)NC(=O)CCC(=O)O)C(C)(C)C)c1 (mixture of isomers)", "HCV proteinase (Hepatitis C virus genotype 1a, UniProt P27958)", 8.22),
    ("CC[C@H](NC(=O)C(=O)C(CC(F)(F)F)NC(=O)[C@H](CC(C)C)NC(=O)[C@@H](NC(=O)[C@H](Cc1ccccc1C)NC(=O)[C@H](CCC(=O)O)NC(=O)[C@H](CC(=O)O)NC(=O)CCC(=O)O)C(C)(C)C)c1ccccc1 (mixture of isomers)", "HCV proteinase (Hepatitis C virus genotype 1a, UniProt P27958)", 8.15),
]
